Target: Protein arginine N-methyltransferase 5 (Homo sapiens, UniProt O14744)
Sequence (O14744 whole entry): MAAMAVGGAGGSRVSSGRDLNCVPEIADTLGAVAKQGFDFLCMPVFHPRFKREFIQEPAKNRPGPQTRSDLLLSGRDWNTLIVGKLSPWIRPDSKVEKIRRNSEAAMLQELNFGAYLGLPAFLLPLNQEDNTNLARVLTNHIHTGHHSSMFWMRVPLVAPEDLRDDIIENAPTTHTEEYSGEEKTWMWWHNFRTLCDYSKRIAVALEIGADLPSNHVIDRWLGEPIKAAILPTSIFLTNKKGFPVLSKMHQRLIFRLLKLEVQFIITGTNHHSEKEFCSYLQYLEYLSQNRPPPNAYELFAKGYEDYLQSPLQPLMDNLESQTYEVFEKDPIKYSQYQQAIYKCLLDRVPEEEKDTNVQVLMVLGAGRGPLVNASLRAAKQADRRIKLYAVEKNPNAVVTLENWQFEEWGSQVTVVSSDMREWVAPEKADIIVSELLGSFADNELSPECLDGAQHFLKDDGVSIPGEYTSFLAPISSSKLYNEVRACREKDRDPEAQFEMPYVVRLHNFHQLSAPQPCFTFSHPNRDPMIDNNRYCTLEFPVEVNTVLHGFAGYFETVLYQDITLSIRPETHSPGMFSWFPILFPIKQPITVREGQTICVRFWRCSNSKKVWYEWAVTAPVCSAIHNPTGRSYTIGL
MEASURED_QUANTITY: IC50 (nM)
// units = nM; emit number, no label

Request: I'm curious: which IC50 was measured for Cc1ncnc2c1ccn2[C@@H]1O[C@H]([C@H](O)c2cnn(C)c2)[C@@H](O)[C@H]1O tested on Protein arginine N-methyltransferase 5 (Homo sapiens, UniProt O14744)?
Result: 50
